assay: yeast display, Sf9 membrane polyspecificity reagent, FACS + sequencing; frameworks hold sequencing errors

{"seq": "QVQLVESGGGLVQAGGSLRLSCAASGYIFYFYAMGWYRQAPGKERELVAAISSSGGSTRYADSVKGRFTISRDNAKNTVYLQMNSLKPEDTAVYYCAASHWSGAAWYYYWGQGTQVSVSS", "polyreactivity (PSR sort gate)": "high polyreactivity"}
{"seq": "QVQLVESGGALVQAGGSLRISCAASGRTFQVNTMGWYRQAPGKEMELVAAISSAGRTYYADSVKGRFTISRDNAKNTVYLQMNSLKPEDTAVYYCSAAWSYSYWKARYGYWGQGTQVTVSS", "polyreactivity (PSR sort gate)": "high polyreactivity"}

====

assay: yeast display, Sf9 membrane polyspecificity reagent, FACS + sequencing; frameworks hold sequencing errors

{"seq": "QVQLVESGGGLVQAGGSLLLSCAASGIIFGTNAMGWYRQAPGKERELVAGITSSGDSTYYADSVKGRFTISRDNAKNTVYLQMNSLKPEDTAVYYCAREIRTREFDSWGQGTQVTVSS", "polyreactivity (PSR sort gate)": "low polyreactivity"}
{"seq": "QVQLVESGGGLVQAGGSLRLSCAASGSIFVFYAMGWYRQAPGKERELVASITSSGGSTYYADSVKGRFTISRDNAKNTVYLQMNSLKPEDTAVYYCAARKYRNPYYYRYYYWGQGTQVTVSS", "polyreactivity (PSR sort gate)": "high polyreactivity"}
{"seq": "QVQLVESGGGLVQAGGSLRLSCAASGSTFYANAMGWYRQAPGKERELVAAIDSGGTTTYADSVKGRFTISRDNAKNTVYLQMNSLKPEDTAVYYCAADQYWYFWYDYWGQGTQVTVSS", "polyreactivity (PSR sort gate)": "low polyreactivity"}
{"seq": "QVQLVESLGGLVQAGGSLRLSCAASGFTFGAYAMGLYRPAPGKERELVATMDWRGSSTYYADSVKGRFTISRDNAKNTVYLQINCLKPVDTAVYYCAARLARGSYAYEYWGHGTQVTVSS", "polyreactivity (PSR sort gate)": "low polyreactivity"}
{"seq": "QVQHVESGGGLVQAGGSLRLSCAASGRIYFAYAMGWSRQAPGKERELVASITSGGSTNYADSVKGRFTISRDNGKNTLYLQMNSLKPEDTAVYYCAARSRFSNLYGRFYYWGQGTQVTVSS", "polyreactivity (PSR sort gate)": "high polyreactivity"}
{"seq": "QVQLVESGGGLVQAGGSLRLSCAASGFIFRRYAMGWYRQAPGKERELVARISTIGGNTFYADSVKGRFTISRDTAKNTVYLQMNSLKPEDTAVYYCATTGGPSWRKYYSWGQGTQVTVSS", "polyreactivity (PSR sort gate)": "high polyreactivity"}
{"seq": "QVQLVESGGGLVQAGGSLRLSCAASGIIFRYNAMGWYSQAPGKDRELVAAITYRGGSTRYADSVKGRFTISRDNAKNTVYLQMNSLKPEDTAVYYCNAQRRTYIYDYWGQGTQVTVSS", "polyreactivity (PSR sort gate)": "high polyreactivity"}
{"seq": "QVQLVESGGGLVQAGGSLRLSCAASGRTFSRNAMGWYRQAPGNERELLAASSWSGGRTYYADSVKGRFTISRDNAKNTFYLQMNSLKPEDTAVYYCAAGGGTGGSRYDSWGQGTQVTVSS", "polyreactivity (PSR sort gate)": "high polyreactivity"}
{"seq": "QVQLVESGGGLVQAGGSLRLSCAASGSTFGWNAMGWYRQAPGKERELVAAISSRGGSTSYADSVKGRFTISRDNAKNSVYLQMNSLKPEYTAVYYCAAPYVYYRYGYWGLGTQVTVSS", "polyreactivity (PSR sort gate)": "low polyreactivity"}
{"seq": "QVQLVESGGGLVQAGGSLRLSCAASGSTFRLYTKGWYRQAPGKERELVAAISVSGVSTYYADSVKGRFTISRDNAKNTVYVQMNSLKPEDTAVYYCAKRGYLFLRGSVRVGYNYWGQGTQVTVSS", "polyreactivity (PSR sort gate)": "low polyreactivity"}
{"seq": "QVQLVESGGGLVQAGGSLRLSCAASGFIFRYNPMGWYRQAPGKERELVAVITSGGRTYYADSVKGRFTISRDNAKNTVYLQMNSLKPEDTAVYYCNGDSRHRRNYDYWGQGSQVTVSS", "polyreactivity (PSR sort gate)": "high polyreactivity"}
